For reference, IC50 measured on tau-K18 acetyltransferase activity (Homo sapiens, UniProt P10636):
measure: IC50 (µM)

I: CC(C)(COP(=O)(O)OP(=O)(O)OC[C@H]1O[C@@H](n2cnc3c(N)ncnc32)[C@H](O)[C@@H]1OP(=O)(O)O)[C@@H](O)C(=O)NCCC(=O)NCCS
II: CC(=O)CSCCNC(=O)CCNC(=O)[C@H](O)C(C)(C)COP(=O)(O)OP(=O)(O)OC[C@H]1O[C@@H](n2cnc3c(N)ncnc32)[C@H](O)[C@@H]1OP(=O)(O)O
Qu. Between I and II , which one shows the larger IC50 value? API: response body contains the label of the selected item.
Ans. II
(II: 668 µM, I: 59 µM)
